ASSAY NAME: Solubility in aqueous buffers, FaSSIF and FeSSIF (HPLC/UV)
Assay type: physicochemical
CONDITIONS USED: FaSSIF, 25 °C, thermodynamic from solid; repetition of the tests
READOUT KIND: solubility at 4 h (µg/mL)
Give bare numbers, in µg/mL.

COMPOUND: COc1ccc([C@@H]2[C@@H](CC[C@H](O)c3ccc(F)cc3)C(=O)N2c2ccc(CNC(=O)CCCCCCCCCCC(=O)NC[C@H](O)[C@@H](O)[C@H](O)[C@H](O)CO)cc2)cc1 [Example I]
solubility at 4 h / µg/mL: 43

Now examine the next entry.
# input Data request, read-out solubility at 4 h, for COc1ccc([C@@H]2[C@@H](CC[C@H](O)c3ccc(F)cc3)C(=O)N2c2ccc(CNC(=O)CCCCCCCCCCCNC(=O)[C@H](O)[C@@H](O)[C@H](O)[C@H](O)CO)cc2)cc1 [Example C1, reference compound]
# output 6
